target: Glucocorticoid receptor (Homo sapiens) (UniProt P04150); assay: GR-EFC Redistribution (AID 451); conditions: CHO-K1 GR-EFC translocation, beta-gal luminescence, 2 h; also: potency is read from the fitted curve at half-maximal effect
Sequence (P04150 whole entry, looked up): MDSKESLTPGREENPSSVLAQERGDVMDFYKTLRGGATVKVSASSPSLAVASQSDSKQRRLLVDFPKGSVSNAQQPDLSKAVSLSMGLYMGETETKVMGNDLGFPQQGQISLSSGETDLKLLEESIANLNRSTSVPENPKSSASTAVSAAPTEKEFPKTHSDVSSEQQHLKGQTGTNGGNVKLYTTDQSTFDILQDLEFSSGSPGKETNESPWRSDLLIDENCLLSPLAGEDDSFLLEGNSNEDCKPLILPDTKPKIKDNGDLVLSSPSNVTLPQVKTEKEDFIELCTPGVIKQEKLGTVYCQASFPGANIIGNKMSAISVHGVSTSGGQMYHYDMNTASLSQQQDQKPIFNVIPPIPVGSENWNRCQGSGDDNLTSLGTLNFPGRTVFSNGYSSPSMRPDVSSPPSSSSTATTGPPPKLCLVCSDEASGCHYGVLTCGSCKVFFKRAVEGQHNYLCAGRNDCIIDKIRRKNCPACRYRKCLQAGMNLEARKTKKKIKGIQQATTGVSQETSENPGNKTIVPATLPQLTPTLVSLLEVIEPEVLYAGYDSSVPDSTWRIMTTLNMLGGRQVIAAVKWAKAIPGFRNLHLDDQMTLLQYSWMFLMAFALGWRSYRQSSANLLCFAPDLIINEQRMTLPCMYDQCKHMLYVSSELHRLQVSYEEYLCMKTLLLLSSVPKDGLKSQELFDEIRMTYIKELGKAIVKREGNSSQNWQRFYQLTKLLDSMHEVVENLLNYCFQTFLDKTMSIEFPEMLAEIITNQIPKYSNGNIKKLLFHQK
Calls of active or inactive are those of the source. Calls follow the shape of the full dose curve.
Each entry below carries its recorded Potency.

• O=C1c2ccccc2C(=O)N1c1ccc(Cc2ccc(N3C(=O)c4ccccc4C3=O)cc2)cc1 = > 9.22 µM (inactive)

Give the measured Potency of "NN(CC(=O)O)CC(=O)O" .
> 9.22 µM (inactive)

Give the measured Potency of "O=C(O)[C@@H]1CCN(Cc2oc(CO)cc(=O)c2O)C1" .
> 9.22 µM (inactive)

###

biological target: Nuclear receptor subfamily 1 group I member 2 (Rattus norvegicus); assay: qHTS assay for small molecule activators of the rat pregnane X receptor (rPXR) signaling pathway (AID 651751); settings: rPXR reporter cells, luciferase (One-Glo), 24 h; also: 0% is about no effect
parameter: max response (%)
Kindly answer with a numeric value in %, unit omitted.

Study these solved cases before continuing.
* Nc1ccc(N)c(Cl)c1 | -1.32
* CC(=O)c1ccc(Cl)c(Cl)c1Cl | -2.86
* OCC(CBr)(CBr)CBr | 6.71
* C/C=C/C=C/C=O | -0.0021
* Oc1ccc2c(c1)OCO2 | -0.719

Give the measured max response of "NC(=O)Nc1nc2ccccc2[nH]1" .
-2.46

Give the measured max response of "Cc1c(C(=O)O)c(O)cc2c1C(=O)c1c(O)c([C@H]3O[C@H](CO)[C@@H](O)[C@H](O)[C@H]3O)c(O)c(O)c1C2=O" .
-9.27

Give the measured max response of CCCCCCCCC1CO1 (stereo not given) .
-2.96

Give the measured max response of Cc1ccccc1OCC1CO1 (stereo not given) .
0.751

Give the measured max response of "Oc1cc(Cl)cc(Cl)c1Cl" .
0.309

Give the measured max response of "C[Si](C)(C)Cl" .
1.16

Give the measured max response of O=C(OCC1CO1)C1CCCCC1C(=O)OCC1CO1 (stereo not given) .
1.33

Give the measured max response of "c1cc2c3c(c1)ccc1cccc(c13)C2" .
-0.774

Give the measured max response of "O=c1[nH]ncc2ccccc12" .
-3.03

Give the measured max response of "C1CCCNCC1" .
1.16

###

test system: GB4; test: qHTS profiling for inhibitors of Plasmodium falciparum proliferation (AID 504749); also: nearly all actives have a fitted effect of over 60% in size; also: potency is read from the fitted curve at half-maximal effect; details: P. falciparum in erythrocytes, SYBR Green DNA, 72 h; series mostly up to 28.7 µM
Records with an inconclusive call do not appear. Active and inactive are the calls of the source. Calls follow the shape of the dose curve; as a rule, active = well fitted inhibition curve with a large enough effect; inconclusive = small, poorly fitted or top-dose-only effect; inactive = flat fitted curve, though single readings scatter.
parameter: Potency

* CC(C)(C)c1ccc(CN2CCN([C@H](c3ccccc3)c3ccc(Cl)cc3)CC2)cc1 | 15.1 µM (active)
* Cc1onc(-c2c(F)cccc2Cl)c1C(=O)N[C@@H]1C(=O)N2[C@H]1SC(C)(C)[C@H]2C(=O)O | inactive
* Cc1c(C(=O)O)c(O)cc2c1C(=O)c1c(O)c([C@H]3O[C@H](CO)[C@@H](O)[C@H](O)[C@H]3O)c(O)c(O)c1C2=O | inactive
* NS(=O)(=O)c1cc2c(cc1Cl)N[C@H](Cc1ccccc1)NS2(=O)=O | inactive

###

tested on: PAD; assay: qHTS profiling for inhibitors of Plasmodium falciparum proliferation (AID 504749); also: nearly all actives have a fitted effect of over 60% in size; settings: P. falciparum in erythrocytes, SYBR Green DNA, 72 h; series mostly up to 28.7 µM
Inconclusive results are not listed. Calls of active or inactive are those of the source. Calls come from the whole dose curve; as a rule, active = well fitted inhibition curve with a large enough effect; inconclusive = small, poorly fitted or top-dose-only effect; inactive = flat fitted curve, though single readings scatter.
The reply should be one of these categories: active, inactive

Here are 3 compounds together with their reported answers.
* COc1cc2nc(N(C)CCCNC(=O)[C@@H]3CCCO3)nc(N)c2cc1OC | inactive
* N[C@@H](Cc1ccccc1)C(=O)O | inactive
* NS(=O)(=O)c1cc2c(cc1Cl)N[C@H](Cc1ccccc1)NS2(=O)=O | inactive

Tell me the assay call for "O=C(O)[C@@H](S)[C@H](S)C(=O)O" please.
active

Tell me the assay call for "CC1(C)S[C@@H]2[C@H](NC(=O)Cc3ccccc3)C(=O)N2[C@@H]1C(=O)O" please.
inactive

Tell me the assay call for "CCc1ccc2c(c1)N(C[C@H](C)CN(C)C)c1ccccc1S2" please.
inactive

Tell me the assay call for "C[C@]12CC[C@H]3c4ccc(O)cc4CC[C@@H]3[C@H]1CC[C@@H]2OC(=O)CCC1CCCC1" please.
active
